tested.target: K^b sol (Mus musculus, UniProt P01901)
Construct: K^b α1α2α3 domains (274 residues) and murine β2 microglobulin (99 residues); made in house; host or cells: Drosophila S2/M3 cells
Sequence (P01901 22-295): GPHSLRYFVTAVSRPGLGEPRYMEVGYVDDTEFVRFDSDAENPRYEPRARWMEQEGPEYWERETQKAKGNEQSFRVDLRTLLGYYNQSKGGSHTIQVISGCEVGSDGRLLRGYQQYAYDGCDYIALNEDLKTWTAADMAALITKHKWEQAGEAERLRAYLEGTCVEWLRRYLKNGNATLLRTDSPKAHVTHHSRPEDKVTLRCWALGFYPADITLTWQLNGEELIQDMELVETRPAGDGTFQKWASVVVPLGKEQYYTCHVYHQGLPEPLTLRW
Sequence (P01887 21-119 partner): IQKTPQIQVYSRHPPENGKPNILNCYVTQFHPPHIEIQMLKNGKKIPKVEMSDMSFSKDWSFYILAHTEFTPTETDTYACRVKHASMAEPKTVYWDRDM
test: biochemical
Format: binding, murine
condition.label: read-out: KD
Where no end group is shown, it is not given here.
quantity.measured: Kd (nM)
Form entry: value (nM) — number only.

Inquiry: # value lookup — system K^b sol (Mus musculus, UniProt P01901), readout Kd, item LESIINFEKL [OVA-10N]
Reply text: 280

Inquiry: # value lookup — system K^b sol (Mus musculus, UniProt P01901), readout Kd, item SIINFEKLTE [OVA-10C]
Reply text: 14

Inquiry: # value lookup — system K^b sol (Mus musculus, UniProt P01901), readout Kd, item SIINFEKLT [OVA-9C]
Reply text: 11
